Where do the numbers come from? From the supplement of paper PMC6555819.

tested on: RXRa DBDmut IVT, anti-RXR (DBD mutation: RXRa K156A/R161A, NR concentration 90 nM); experiment: PBM binding z-score (relative to random genomic background probes); higher = stronger binding; sequences stand for … in GC…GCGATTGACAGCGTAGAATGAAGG
Would you mind sorting the entries by PBM binding z-score according to these classes? bottom range = under 0.6, center range = from 0.6 up to 2, top range = 2 and over

As a guide, the following entries are already answered.
[[record]]
record_sequence = "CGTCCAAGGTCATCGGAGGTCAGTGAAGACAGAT"
assigned_label = "top range"

[[record]]
record_sequence = "TCATATAGGTAAGGGTGAAAGTCGAACGATATGA"
assigned_label = "bottom range"

[[record]]
record_sequence = "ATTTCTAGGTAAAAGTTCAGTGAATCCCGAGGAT"
assigned_label = "center range"

[[record]]
record_sequence = "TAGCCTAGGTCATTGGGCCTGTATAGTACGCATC"
assigned_label = "center range"

[[record]]
record_sequence = "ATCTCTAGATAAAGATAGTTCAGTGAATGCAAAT"
assigned_label = "bottom range"


Which category fits this record: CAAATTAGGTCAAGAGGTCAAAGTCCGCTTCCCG
top range

For the record ATCTCTAGGTAAAGTTCAGTGAAAGATCGATAGA , report the class its PBM binding z-score corresponds to.
center range

Please classify: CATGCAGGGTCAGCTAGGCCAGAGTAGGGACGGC
center range

Each sequence maps to one class by PBM binding z-score. Which class for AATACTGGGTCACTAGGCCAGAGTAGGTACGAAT ?
bottom range
